From: ChEMBL document CHEMBL1147133

# IC50 listing for each entry below
Assay: Inhibition of RNA polymerase 2
Set-up: species or system Homo sapiens

# chemical-string, IC50
rows = [
    ("CC(=O)c1cc(F)c(Br)cc1NCC(=O)Nc1ccccc1C(=O)O", "> 122 µM"),
]

Note: attention shifts to another entry.
Q: Please report the recorded IC50 for CC(=O)c1cc(F)c(Cl)cc1NCC(=O)Nc1ccccc1C(=O)O .
Result: > 137 µM

* * *

Test: Inhibition of human DNA polymerase gamma
pIC50: −log10 of the molar value.
Listed here: items and their measured pIC50.

# chemical-string, pIC50
data = [
    ("CC(=O)c1cc(F)c(Br)cc1NCC(=O)Nc1ccccc1C(=O)O", "< 4.62"),
]

Field: next compound
Q: Entry CC(=O)c1cc(F)c(Cl)cc1NCC(=O)Nc1ccccc1C(=O)O : reported pIC50 = ?
Result: < 4.57

* * *

Assay: Inhibition of HIV reverse transcriptase
Set-up: species or system Human immunodeficiency virus
assay-endpoint: IC50

# chemical-string, result
measured = [
    ("CC(=O)c1cc(F)c(Cl)cc1NCC(=O)Nc1ccccc1C(=O)O", "> 137 µM"),
]

Now let's try a different one.
Q: What value of IC50 has been recorded for this entry: CC(=O)c1cc(F)c(Br)cc1NCC(=O)Nc1ccccc1C(=O)O
Result: > 122 µM
